# system_tested: interaction between the KRS protein and the laminin receptor (LR) (Homo sapiens)
# Construct: expressed in transfected cells; host or cells: yeast EGY/SH cells
# Sequence (Q15046 whole entry): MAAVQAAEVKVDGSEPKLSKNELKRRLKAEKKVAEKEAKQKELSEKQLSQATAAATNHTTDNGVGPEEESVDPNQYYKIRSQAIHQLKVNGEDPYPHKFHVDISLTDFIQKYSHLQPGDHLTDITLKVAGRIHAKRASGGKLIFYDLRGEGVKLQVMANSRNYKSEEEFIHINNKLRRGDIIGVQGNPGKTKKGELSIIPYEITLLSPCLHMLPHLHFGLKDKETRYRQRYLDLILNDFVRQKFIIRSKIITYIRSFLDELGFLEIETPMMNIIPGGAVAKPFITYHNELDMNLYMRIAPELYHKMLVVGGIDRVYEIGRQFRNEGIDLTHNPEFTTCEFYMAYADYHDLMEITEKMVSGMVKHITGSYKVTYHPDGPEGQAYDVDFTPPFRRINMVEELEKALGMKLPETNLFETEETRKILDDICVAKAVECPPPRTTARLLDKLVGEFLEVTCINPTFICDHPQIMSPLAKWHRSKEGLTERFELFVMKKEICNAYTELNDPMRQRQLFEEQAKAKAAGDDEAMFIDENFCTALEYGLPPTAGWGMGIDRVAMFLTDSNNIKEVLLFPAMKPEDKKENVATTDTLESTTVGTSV
# experiment_summary: Yeast Two Hybrid inhibition of the interaction between the KRS protein and the laminin receptor (LR)
# Assay type: cell-based
# experimental_context: 1 μL of 20 mM DMSO solution per 200 μL culture; 30° C., 6 days; absorbance 540 nm; non-treated control = 100%
Each entry gets condition not met if its Yeast cell proliferation rates KRS-LR (%) stays under 30%, and condition met if its Yeast cell proliferation rates KRS-LR (%) is 30% or above.

>  <compound>
CCC(C(=O)O)n1c(=NC(=O)c2cccc(Cl)c2)sc2c(Cl)cccc21 (stereo not drawn)

>  <system_tested>
interaction between the KRS protein and the laminin receptor (LR) (Homo sapiens)

>  <label_value>
condition not met

$$$$
>  <compound>
CCC(C(=O)O)n1c(=NC(=O)c2ccc(OC)cc2)sc2cc(OC(F)(F)F)ccc21 (stereo not drawn)

>  <system_tested>
interaction between the KRS protein and the laminin receptor (LR) (Homo sapiens)

>  <label_value>
condition met

$$$$
>  <compound>
CCC(C(=O)O)n1c(=NC(=O)c2ccc(C)cc2)sc2cccc(OC)c21 (stereo not drawn)

>  <system_tested>
interaction between the KRS protein and the laminin receptor (LR) (Homo sapiens)

>  <label_value>
condition not met

$$$$
>  <compound>
CC(C(=O)O)n1c(=NC(=O)c2cccc(C(F)(F)F)c2)sc2ccc(Cl)cc21 (stereo not drawn)

>  <system_tested>
interaction between the KRS protein and the laminin receptor (LR) (Homo sapiens)

>  <label_value>
condition not met

$$$$
>  <compound>
CCC(C(=O)O)n1c(=NC(=O)c2ccc(C(F)(F)F)cc2)sc2ccccc21 (stereo not drawn)

>  <system_tested>
interaction between the KRS protein and the laminin receptor (LR) (Homo sapiens)

>  <label_value>
condition not met

$$$$
>  <compound>
CC(C(=O)O)n1c(=NC(=O)c2cccc(C(F)(F)F)c2)sc2ccccc21 (stereo not drawn)

>  <system_tested>
interaction between the KRS protein and the laminin receptor (LR) (Homo sapiens)

>  <label_value>
condition met

$$$$
>  <compound>
CCC(C(=O)O)n1c(=NC(=O)c2ccc(OC)cc2)sc2c(F)c(F)ccc21 (stereo not drawn)

>  <system_tested>
interaction between the KRS protein and the laminin receptor (LR) (Homo sapiens)

>  <label_value>
condition met

$$$$
>  <compound>
CCC(C(=O)O)n1c(=NC(=O)c2cccc(Cl)c2)sc2cc(C)ccc21 (stereo not drawn)

>  <system_tested>
interaction between the KRS protein and the laminin receptor (LR) (Homo sapiens)

>  <label_value>
condition met

$$$$
>  <compound>
CCC(C(=O)O)n1c(=NC(=O)c2cccc(Cl)c2)sc2cc(F)c(F)cc21 (stereo not drawn)

>  <system_tested>
interaction between the KRS protein and the laminin receptor (LR) (Homo sapiens)

>  <label_value>
condition met

$$$$
>  <compound>
CC(C(=O)O)n1c(=NC(=O)c2ccc(F)c(F)c2)sc2cc(F)c(F)cc21 (stereo not drawn)

>  <system_tested>
interaction between the KRS protein and the laminin receptor (LR) (Homo sapiens)

>  <label_value>
condition met

$$$$
>  <compound>
CCC(C(=O)O)n1c(=NC(=O)c2cccc(Cl)c2)sc2c(F)c(Cl)ccc21 (stereo not drawn)

>  <system_tested>
interaction between the KRS protein and the laminin receptor (LR) (Homo sapiens)

>  <label_value>
condition not met

$$$$
>  <compound>
CCC(C(=O)O)n1c(=NC(=O)c2ccc(C)cc2)sc2cc3c(cc21)OCO3 (stereo not drawn)

>  <system_tested>
interaction between the KRS protein and the laminin receptor (LR) (Homo sapiens)

>  <label_value>
condition met

$$$$
>  <compound>
CCC(C(=O)O)n1c(=NC(=O)c2cccc(C(F)(F)F)c2)sc2ccccc21 (stereo not drawn)

>  <system_tested>
interaction between the KRS protein and the laminin receptor (LR) (Homo sapiens)

>  <label_value>
condition met

$$$$
>  <compound>
CC(C(=O)O)n1c(=NC(=O)c2cccc(Cl)c2)sc2c(F)c(F)ccc21 (stereo not drawn)

>  <system_tested>
interaction between the KRS protein and the laminin receptor (LR) (Homo sapiens)

>  <label_value>
condition not met

$$$$
>  <compound>
CCC(C(=O)O)n1c(=NC(=O)c2cccc(OC)c2)sc2c(F)cccc21 (stereo not drawn)

>  <system_tested>
interaction between the KRS protein and the laminin receptor (LR) (Homo sapiens)

>  <label_value>
condition met

$$$$
>  <compound>
CC(C(=O)O)n1c(=NC(=O)c2cccc(Cl)c2)sc2c(F)c(Cl)ccc21 (stereo not drawn)

>  <system_tested>
interaction between the KRS protein and the laminin receptor (LR) (Homo sapiens)

>  <label_value>
condition not met

$$$$
>  <compound>
Cc1ccc2c(sc(=NC(=O)c3cccc(Cl)c3)n2C(C)C(=O)O)c1F (stereo not drawn)

>  <system_tested>
interaction between the KRS protein and the laminin receptor (LR) (Homo sapiens)

>  <label_value>
condition not met

$$$$
>  <compound>
CCC(C(=O)O)n1c(=NC(=O)c2cccc(Cl)c2)sc2c(F)c(F)ccc21 (stereo not drawn)

>  <system_tested>
interaction between the KRS protein and the laminin receptor (LR) (Homo sapiens)

>  <label_value>
condition not met

$$$$
>  <compound>
CC(C(=O)O)n1c(=NC(=O)c2cccc(Cl)c2)sc2cc(C(F)(F)F)ccc21 (stereo not drawn)

>  <system_tested>
interaction between the KRS protein and the laminin receptor (LR) (Homo sapiens)

>  <label_value>
condition met

$$$$
